The entries below come with measured viability at 28.5 h, 10 µM values attached.
Test: in vitro
Conditions: human, hela cells, % viability
// note: answer is a bare numeric in %

// solved cases for viability at 28.5 h, 10 µM follow
CC1(C)SC2c3ccccc3C(=O)N2[C@@H]1C(=O)N1CCC(C(=O)O)CC1 (some centres unmarked)
89.4
CCN(CCO)C(=O)c1coc(COc2ccc3sc(C)nc3c2)n1
89.7
Cn1ccnc1C1(O)CCN(C(=O)NC2CCCCC2)CC1
91.8
COc1ccc(C(=O)N2CCC3(CCCN(C(=O)c4cscn4)C3)C2)cc1OC (centres unmarked)
92

Now take the following molecule into account.
The measured viability at 28.5 h, 10 µM associated with `O=C(CSc1nc2ccccc2n1Cc1ccccc1)N/N=C/c1ccco1` reads 89.6

###

Assay: in vitro
Details: human, hela cells, % viability
The entries below come with measured viability at 28.5 h, 10 µM values attached.
// note: answer is a bare numeric in %

Cc1nn(-c2ccccn2)c(C)c1[C@@H]1C=C[C@@H](NC(=O)NC(C)C)C1 [CBK289168]
91.4
CC1(C)CC(=O)c2c(O)cc(OCC(=O)c3ccc(Cl)c(Cl)c3)cc2O1 [CBK267573]
89.1
O=C(Nc1ccccc1)c1ccc(COc2ccc3ccccc3c2)o1 [CBK265897]
113

The measured viability at 28.5 h, 10 µM associated with COc1ccc2nc(Nc3nc(=O)cc(CSc4nc5ccccc5s4)[nH]3)nc(C)c2c1 [CBK264854] reads 110

The measured viability at 28.5 h, 10 µM associated with CC(=O)Nc1ccc(S(=O)(=O)NC2(C(F)(F)F)NC(=O)N(c3ccc(Cl)cc3)C2=O)cc1 (centres unmarked) [CBK267689] reads 95.7

The measured viability at 28.5 h, 10 µM associated with Cc1nn(C)c2ncc(S(=O)(=O)Nc3ccc(F)cn3)cc12 [CBK305175] reads 95.1

The measured viability at 28.5 h, 10 µM associated with O=C(Nc1ccc(F)cc1)c1cccc(NS(=O)(=O)c2cc(Cl)sc2Cl)c1 [CBK038980] reads 95.8

The measured viability at 28.5 h, 10 µM associated with Cc1c(Cl)cccc1S(=O)(=O)Nc1c(C(=O)N2CCOCC2)[nH]c2ccccc12 [CBK050076] reads 109

The measured viability at 28.5 h, 10 µM associated with CN1C[C@]2(CC[C@@H](C(=O)NC3CC3)CC2)Oc2ccccc2C1=O [CBK282610] reads 102

The measured viability at 28.5 h, 10 µM associated with Cc1ccn(CCNC(=O)c2cc3ccc(F)cc3[nH]2)n1 [CBK283209] reads 91.9

The measured viability at 28.5 h, 10 µM associated with CC1=NNC(=O)C1CCC(=O)N/N=C/C(Br)=C/c1ccccc1 (centres unmarked) [CBK262929] reads 100

The measured viability at 28.5 h, 10 µM associated with CC(=O)N1CCC(N2CC[C@H](c3nnc(-c4ccco4)o3)C2)CC1 [CBK289395] reads 86.9

The measured viability at 28.5 h, 10 µM associated with CC(=O)NC(c1nccs1)C1CCN(C(=O)C(C)(C)C)CC1 (centres unmarked) [CBK284677] reads 88.9

###

Experiment: in vitro
Conditions: human, hela cells, % viability
The entries below come with measured viability at 28.5 h, 10 µM values attached.
Your reply should be a number followed by the unit it is expressed in.

// solved cases for viability at 28.5 h, 10 µM follow
Cc1nc2[nH]c(=O)nc(N)c2nc1C [CBK025658]
83.3%
O=C(O)CN1C(=O)/C(=C\c2ccc(Oc3ccc(C(F)(F)F)cc3[N+](=O)[O-])cc2)SC1=S [CBK264809]
97.9%
C[C@@H]1[C@H](c2ccccc2)OC(=O)N1C1CCN(S(=O)(=O)c2cccs2)CC1 [CBK043302]
93.9%

Now take the following molecule into account.
The measured viability at 28.5 h, 10 µM associated with CC(=O)Nc1cccc(NS(=O)(=O)c2ccc(N3CCNCC3)c3ccccc23)c1 [CBK028702C] reads 105%
